Data credit: paper PMC6409085

TARGET_UNDER_TEST: SfurOBP11 (Sogatella furcifera, UniProt V5T6E3)
Sequence (V5T6E3 entry or part of it): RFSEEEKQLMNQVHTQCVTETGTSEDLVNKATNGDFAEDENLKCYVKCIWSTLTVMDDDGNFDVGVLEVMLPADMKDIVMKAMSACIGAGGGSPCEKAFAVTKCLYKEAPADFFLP
PROTOCOL_DETAILS: biochemical
Type: binding
ASSAY_SETUP: ligand concentration 4, replicate 2
READOUT_TYPE: Fluorescence intensity, fluorescence competitive binding assay, OBP11

Please review the entries below; each comes with its answer.
INSERT INTO results (molecule, target_under_test, reported) VALUES
  ('CCCCCCC=CCO [2-nonen-1-ol]', 'SfurOBP11 (Sogatella furcifera, UniProt V5T6E3)', 39342),
  ('c1ccc2ccccc2c1 [naphthalene]', 'SfurOBP11 (Sogatella furcifera, UniProt V5T6E3)', 34738),
  ('CC(C)COC(=O)CCCCC(=O)OCC(C)C [DA(diisobutyl adipate)]', 'SfurOBP11 (Sogatella furcifera, UniProt V5T6E3)', 27203),
  ('CCCCCCCCCCCCCC [n-tetradecane]', 'SfurOBP11 (Sogatella furcifera, UniProt V5T6E3)', 30866),
  ('CC/C=C\CCO [(Z)-3-hexenol]', 'SfurOBP11 (Sogatella furcifera, UniProt V5T6E3)', 22135);

Look up Fluorescence intensity, fluorescence competitive binding assay, OBP11 for the entries below, preserving their order.
1. CCCCCCCCCCCCCCCC [n-hexadecane]
2. CCCCCCCCCCCCCCCC(=O)OC [MH(methyl hexadecanoate)]
3. CCCCCCCCCCCCCCCCCCC [n-nonadecane]
4. C=C(C)C1CC=C(C)CC1 (single isomer, unassigned; (+)) [(+)-limonene]

result:
[21532, 33254, 39209, 21150]

----------
TARGET_UNDER_TEST: SfurOBP11 (Sogatella furcifera)
PROTOCOL_DETAILS: biochemical
Type: binding
ASSAY_SETUP: ligand concentration 16, replicate 3
Would you mind telling me the reported Fluorescence intensity, fluorescence competitive binding assay, OBP11 of each entry?
Answers are plain numbers.

INSERT INTO assay_data (molecule, reported) VALUES
  ('O=C(c1ccccc1)c1ccccc1', 16012),
  ('c1ccc2ccccc2c1', 25361),
  ('CC(=O)c1ccccc1', 17450),
  ('CCCCCCCCC=O', 23455),
  ('Cc1cc(C(C)(C)C)c(O)c(C(C)(C)C)c1', 16022),
  ('CCCCCCCCCCC', 27525),
  ('CC(=O)/C=C/C1=C(C)CCCC1(C)C', 16613),
  ('OC1CCCCC1', 21606),
  ('CCCCCC=O', 18315),
  ('C=CC(C)(O)CCC=C(C)CCC=C(C)C (mixture of isomers)', 17889);

Hi there! I need Fluorescence intensity, fluorescence competitive binding assay, OBP11 for each item below, if you can.
1. CCCCCC(C)=O
2. CCCCCCCCCCCCCCCC(=O)OC [MH(methyl hexadecanoate)]
3. CCCCCCCCCCCCO
4. C/C(=C\CO)CCC[C@H](C)CCC[C@H](C)CCCC(C)C
5. CCCCCCCCCCCCC=O

result:
[20932, 53495, 18999, 22422, 24713]

----------
TARGET_UNDER_TEST: SfurOBP2 (Sogatella furcifera)
PROTOCOL_DETAILS: biochemical
Type: binding
ASSAY_SETUP: ligand concentration 2 (unit not given), replicate column 2 of 3
Kindly supply the reported Fluorescence competitive binding assay, OBP2 (raw fluorescence reading) values for the records listed here.
Numbers only.

INSERT INTO assay_data (compound, reported) VALUES
  ('CC(=O)c1ccccc1', 17695);

Kindly give each listed record's Fluorescence competitive binding assay, OBP2 (raw fluorescence reading).
1. O=C(c1ccccc1)c1ccccc1
2. C=CC(C)(O)CCC=C(C)C (centres unmarked)

result:
1. 16950
2. 19579

Okay, here is my list. What is Fluorescence competitive binding assay, OBP2 (raw fluorescence reading) for each of these?
1. CCCCCCCC
2. c1ccc2ccccc2c1

result:
1: 16925; 2: 21502

----------
TARGET_UNDER_TEST: SfurOBP11 (Sogatella furcifera, UniProt V5T6E3)
PROTOCOL_DETAILS: biochemical
Format: binding
ASSAY_SETUP: ligand concentration 4, replicate 3
READOUT_TYPE: Fluorescence intensity, fluorescence competitive binding assay, OBP11

Guide cases for Fluorescence intensity, fluorescence competitive binding assay, OBP11, answers given:
INSERT INTO assay_data (molecule, target_under_test, reported) VALUES
  ('CCCCCC=O [caproaldehyde]', 'SfurOBP11 (Sogatella furcifera, UniProt V5T6E3)', 29706),
  ('CCCCCCCCCCCCCC [n-tetradecane]', 'SfurOBP11 (Sogatella furcifera, UniProt V5T6E3)', 29645),
  ('CCCCCCCCCCCCCCCCCC [n-octadecane]', 'SfurOBP11 (Sogatella furcifera, UniProt V5T6E3)', 30899);

Now take the following molecule into account.
query: Please look up its Fluorescence intensity, fluorescence competitive binding assay, OBP11: C=CC(C)(O)CCC=C(C)CCC=C(C)C (mixture of isomers) [nerolidol]
result: 29181

----------
Would you kindly list Fluorescence competitive binding assay, OBP2 (raw fluorescence reading) for each of these compounds?
TARGET_UNDER_TEST: SfurOBP2 (Sogatella furcifera, UniProt V5T759)
Sequence (V5T759 entry or part of it): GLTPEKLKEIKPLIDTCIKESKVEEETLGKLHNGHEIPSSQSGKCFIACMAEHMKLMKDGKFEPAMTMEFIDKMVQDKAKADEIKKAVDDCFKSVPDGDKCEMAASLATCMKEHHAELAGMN
PROTOCOL_DETAILS: biochemical
Type: binding
ASSAY_SETUP: ligand concentration 2 (unit not given), replicate column 3 of 3
Give bare numbers.

INSERT INTO results (compound, reported) VALUES
  ('COC(=O)c1ccccc1', 19856),
  ('CCCCCC(C)=O', 20079),
  ('CC1=CC[C@@H](C(C)(C)O)CC1', 19569),
  ('CCCCCCCC=O', 19027),
  ('Cc1cc(C(C)(C)C)c(O)c(C(C)(C)C)c1', 17183),
  ('c1ccc2ccccc2c1', 19080),
  ('CCCCCCCC', 16813),
  ('CCCCCCCCCCC', 13734);

The following compounds each have a reported value; give each one's Fluorescence competitive binding assay, OBP2 (raw fluorescence reading).
1. OC1CCCCC1
2. CCCCCCCCCCCCO
3. CCCCCCCCCCCCCCCCCC

result:
1. 18768
2. 18222
3. 19796

Batch lookup, Fluorescence competitive binding assay, OBP2 (raw fluorescence reading) per entry.
1. CC(=O)/C=C/C1=C(C)CCCC1(C)C
2. CCCCCCCCCCOCCCCCCCCCC
3. CC(=O)c1ccccc1
4. CC/C=C\CCO [(Z)-3-hexenol]
5. O=C(c1ccccc1)c1ccccc1

result:
19828
23440
18887
18506
16565

Provide each entry's Fluorescence competitive binding assay, OBP2 (raw fluorescence reading) from the list below.
1. C=CC(C)(O)CCC=C(C)CCC=C(C)C (mixture of isomers)
2. CCCCCCCCC=O
3. CCCCCC=O
4. CCCCCCCCCCCCC=O
5. CCCCCCC=CCO
6. C=CC(C)(O)CCC=C(C)C (stereo not shown)
7. Cc1ccc(C(C)C)cc1

result:
15441
21233
20397
17114
22264
19869
16667

Hello, I would appreciate it if you could give Fluorescence competitive binding assay, OBP2 (raw fluorescence reading) for each entry below.
1. C=C1CC/C=C(\C)CC[C@@H]2[C@@H]1CC2(C)C
2. C=C/C(C)=C/C/C=C(\C)CCC=C(C)C

result:
1: 11281; 2: 16258

----------
Can you tell me Fluorescence intensity, fluorescence competitive binding assay, OBP11 for the items I'm about to list?
TARGET_UNDER_TEST: SfurOBP11 (Sogatella furcifera)
PROTOCOL_DETAILS: biochemical
Assay type: binding
ASSAY_SETUP: ligand concentration 12, replicate 2
One number for each entry.

INSERT INTO results (compound, reported) VALUES
  ('C=C(C)C1CC=C(C)CC1 (single isomer, unassigned; (+)) [(+)-limonene]', 19954),
  ('CCCCCCCCCCC', 31182);

Kindly give each listed record's Fluorescence intensity, fluorescence competitive binding assay, OBP11.
1. CC1=CC[C@@H](C(C)(C)O)CC1
2. O=Cc1ccccc1
3. CCCCCCCC=O

result:
22497
22204
27390

----------
TARGET_UNDER_TEST: UniProt V5T759
PROTOCOL_DETAILS: biochemical
Assay type: binding
ASSAY_SETUP: ligand concentration 8 (unit not given), replicate column 1 of 3
READOUT_TYPE: Fluorescence competitive binding assay, OBP2 (raw fluorescence reading)
Answers are plain numbers.

Sample answers from the record:
INSERT INTO measurements (compound, reported) VALUES
  ('CC1=CC[C@@H](C(C)(C)O)CC1 [α-terpineol]', 16903),
  ('CCCCCCCC=O [octanal]', 15792),
  ('CCCCCCCCCCCCCCCC [n-hexadecane]', 12682),
  ('c1ccc2ccccc2c1 [naphthalene]', 23158),
  ('CCCCCC(C)=O [2-heptanone]', 15771),
  ('CCCCCCCCCCC [n-hendecane]', 14049);

List Fluorescence competitive binding assay, OBP2 (raw fluorescence reading) for every entry below, keeping the order given.
1. CC(=O)c1ccccc1 [acetophenone]
2. C=C1CC/C=C(\C)CC[C@@H]2[C@@H]1CC2(C)C [β-caryophyllene]
3. C[C@@H]1CC[C@H]2C(C)(C)[C@H]3C[C@@]12CC[C@@]3(C)O [cedrol]
4. Cc1cc(C(C)(C)C)c(O)c(C(C)(C)C)c1 [BHT(2,6-di-tert-butyl-4-methylphenol)]
5. Cc1ccc(C(C)C)cc1 [4-isopropyltoluene]
6. CCCCCC=O [caproaldehyde]

result:
1: 15752; 2: 13150; 3: 26802; 4: 15947; 5: 17260; 6: 17546

# return Fluorescence competitive binding assay, OBP2 (raw fluorescence reading) for each item in the list
1. C=CC(C)(O)CCC=C(C)C (stereo not shown) [linalool]
2. C=C/C(C)=C/C/C=C(\C)CCC=C(C)C [α-farnesene]
3. O=Cc1ccccc1 [benzaldehyde]

result:
1. 18566
2. 15963
3. 13310

query: Quick one: Fluorescence competitive binding assay, OBP2 (raw fluorescence reading) of CCCCCCCCCCCCO [lauryl alcohol] ?
result: 16946
